# Tested on: aorta pieces of rat
# assay.overview: Inhibition of capillary formation in rat aorta model (aorta pieces cultured in collagen gel)
# Format: cell-based
# assay.context: 7th day from addition of sample
# Procedure: In a method of screening the antiangiogenic effect, the degree of inhibition to the formation of lumens observed when an aortic fragment of a rat is cultured in a collagen gel was selected as an indicator (Nicosia R. F., Lab. Invest., 63, 115, 1990). […] The antiangiogenic potency was evaluated by the inhibition of capillary formation in rat aorta model in which aorta pieces of rat were cultured in collagen gel. […]
measurement.kind: IC50 (number of blood capillaries 50% of that without sample)

Report IC50 (number of blood capillaries 50% of that without sample) for CCCC(C(=O)c1cc(CC(C)C)c(O)c(C=O)c1O)C1CC(O)C2(OC2CC)C(O)O1 (centres unmarked) please.
0.019 µg/mL

How about CCCC(C(=O)c1cc(CC(C)C)c(O)c(C=O)c1O)C1CC(O)C2(OC2CCC)C(O)O1 (centres unmarked) ?
0.070 µg/mL

How about CCC1OC12C(O)CC(C(CC(C)C)C(=O)c1cc(C(=O)C(C)C)c(O)cc1O)OC2O (single isomer, unassigned) ?
1 µg/mL

How about CCC1OC12C(O)CC(C(CC(C)C)C(=O)c1cc(CC(C)C)c(O)c(C=O)c1O)OC2O (centres unmarked) ?
0.034 µg/mL

How about CCCC(C(=O)c1cc(CC(C)C)c(O)c(C(C)=O)c1O)C1CC(O)C2(OC2CC)C(O)O1 (centres unmarked) ?
0.38 µg/mL
